Hi there, I'd appreciate the recorded EC50, PRNT with complement, RSV Long for every entry that follows.
substrate: F protein of RSV strain Long (human respiratory syncytial virus strain Long (subtype A)) (UniProt P12568); assay: cell-based or functional assay
Sequence (P12568 26-574): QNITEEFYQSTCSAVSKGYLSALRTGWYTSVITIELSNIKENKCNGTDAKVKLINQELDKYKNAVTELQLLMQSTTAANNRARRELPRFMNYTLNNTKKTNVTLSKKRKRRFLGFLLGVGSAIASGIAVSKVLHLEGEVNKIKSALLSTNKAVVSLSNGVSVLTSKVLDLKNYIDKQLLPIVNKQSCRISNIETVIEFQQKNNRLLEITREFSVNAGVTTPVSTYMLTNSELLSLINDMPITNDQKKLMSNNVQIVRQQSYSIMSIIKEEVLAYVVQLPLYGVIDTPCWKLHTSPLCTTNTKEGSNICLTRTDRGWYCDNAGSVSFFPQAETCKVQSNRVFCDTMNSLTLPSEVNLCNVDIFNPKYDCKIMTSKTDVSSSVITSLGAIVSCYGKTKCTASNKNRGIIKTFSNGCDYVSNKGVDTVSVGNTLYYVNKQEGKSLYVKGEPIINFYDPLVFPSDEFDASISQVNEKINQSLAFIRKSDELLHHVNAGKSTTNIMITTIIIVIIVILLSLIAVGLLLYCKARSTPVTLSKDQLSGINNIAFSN
One number for each entry, in µg/mL.

Challenge: Given the binder antibody 827 (clone 827) (antibody, human IgG1, kappa, V domains shown) VH: QVQLVQSGAEVKKPGASVKVSCRVSGHTFTALSKHWMRQGPGGGLEWMGFFDPEDGDTGYAQKFQGRVTMTEDTATGTAYMELSSLTSDDTAVYYCATVAAAGNFDNWGQGTLVTVSS VL: DIQMTQSPSSLAASVGDRVTITCRASQFISSYLHWYQQRPGKAPKLLMYAASTLQSGVPSRFSGSGSGTDFTLTISSLQPEDFATYYCQQSYTNPYTFGQGTKLEIKR , what is its reported EC50, PRNT with complement, RSV Long?
Response given: 0.16

Challenge: Given the binder antibody 800 (clone 800) (antibody, human IgG1, kappa, V domains shown) VH: QVQLVESGGAVVQPGRSLRLSCEVSGFSFSDYGMNWVRQGPGKGLEWVAVIWHDGSNKNYLDSVKGRFTVSRDNSKNTLFLQMNSLRAEDTAVYYCARTPYEFWSGYYFDFWGQGTLVTVSS VL: AIQLTQSPSSLSASVGDRVTLTCRASQGITDSLAWYQQKPGKAPKVLLYAASRLESGVPSRFSGRGSGTDFTLTISSLQPEDFATYYCQQYSKSPATFGPGTKVEIRR , what is its reported EC50, PRNT with complement, RSV Long?
Response given: 0.15

Others:
Challenge: Given the binder antibody 831 (clone 831) (antibody, human IgG1, kappa, V domains shown) VH: QVQLVQSGAEVKKPGASVKVSCKASANIFTYAMHWVRQAPGQRLEWMGWINVGNGQTKYSQRFQGRVTITRDTSATTAYMELSTLRSEDTAVYYCARRASQYGEVYGNYFDYWGQGTLVTVSS VL: DIQMTQSPSTLSASVGDRLTITCRASQNIYNWLAWYQQKPGKAPKLLIYDASTLESGVPSRFSGSGSGTEFTLTISSLQPDDFATYYCQQYNSLSPTFGQGTKVEIKR , what is its reported EC50, PRNT with complement, RSV Long?
Response given: 0.08
